test system: UniProt P78540
method: Inhibition of arginase II, spectrophotometric urea assay at 530 nm
Assay type: biochemical
study conditions: potency rank 1-5; pH 7.4, 37° C., 60 minutes
attribute measured: IC50

These recorded examples may help you get a feel for the data.
compound | attribute measured | result
N[C@@]1(C(=O)O)CCO[C@@H]1CCCB(O)O | IC50 | 2000 to 5000 nM
NC(Cc1ccc(C(F)(F)F)cc1)C(=O)N1C[C@H](CCCB(O)O)[C@](N)(C(=O)O)C1 (mixture of isomers) | IC50 | 1000 to 2000 nM

// each compound listed below needs its IC50
1. CN1CCCCC1CN1C[C@H](CCCB(O)O)[C@](N)(C(=O)O)C1 (some centres unmarked)
2. N[C@@]1(C(=O)O)CN(C(=O)Nc2ccc(F)cc2)C[C@@H]1CCCB(O)O (racemic)
3. NC[C@H]1C[C@H](CCCB(O)O)[C@](N)(C(=O)O)C1 (racemic)

Output:
["251 to 1000 nM", "251 to 1000 nM", "1000 to 2000 nM"]

###

Measured IC50 (human arginase II (ARG II) (Homo sapiens (Human), UniProt P78540))

As a guide, the following entries are already answered.
molecule | attribute measured | result
COc1ccc(C(=O)N2C[C@H](CCCB(O)O)[C@](N)(C(=O)O)C2)cc1 | IC50 | 0.251 to 1 µM
N[C@@]1(C(=O)O)CN(Cc2ccccc2)C[C@@H]1CCCB(O)O | IC50 | 1 to 2 µM
N[C@@]1(C(=O)O)C[C@@H](NCc2ccccc2)C[C@@H]1CCCB(O)O (racemic) | IC50 | 0.0001 to 0.25 µM
N[C@@]1(C(=O)O)CN(C(=O)CNCc2ccccc2)C[C@@H]1CCCB(O)O | IC50 | 1 to 2 µM
NC[C@@H]1C[C@H](CCCB(O)O)[C@](N)(C(=O)O)C1 (racemic) | IC50 | 0.0001 to 0.25 µM

For the 4 molecules below, give their IC50 values.
1. N[C@@]1(C(=O)O)CCN[C@@H]1CCCB(O)O
2. N[C@@]1(C(=O)O)CNC[C@@H]1CCCB(O)O
3. N[C@H]1C[C@H](CCCB(O)O)[C@](N)(C(=O)O)C1
4. CN[C@@]1(C(=O)O)CNC[C@@H]1CCCB(O)O

Output:
> 5 µM
0.251 to 1 µM
0.251 to 1 µM
0.251 to 1 µM

###

Observed pIC50 values for human arginase I (ARG I) (Homo sapiens (Human), UniProt P05089) are listed in what follows.
pIC50: −log10 of the molar value.

Below, 2 compounds whose answers are already recorded.
compound | test system | pIC50
N[C@@]1(C(=O)O)CN(CC2CCCCN2)C[C@@H]1CCCB(O)O (stereo partly drawn) [Example 21] | human arginase I (ARG I) (Homo sapiens (Human), UniProt P05089) | 6.60 to 10.00
N[C@@]1(C(=O)O)CN(C(=O)CNCc2ccccc2)C[C@@H]1CCCB(O)O [Example 60] | human arginase I (ARG I) (Homo sapiens (Human), UniProt P05089) | 6.00 to 6.60

Task: Item N[C@@]1(C(=O)O)CN(c2ncnc3nc[nH]c23)C[C@@H]1CCCB(O)O [Example 23] : provide pIC50
Output: 6.00 to 6.60

###

test system: human arginase II (ARG II) (Homo sapiens (Human))
Sequence (P78540 23-354): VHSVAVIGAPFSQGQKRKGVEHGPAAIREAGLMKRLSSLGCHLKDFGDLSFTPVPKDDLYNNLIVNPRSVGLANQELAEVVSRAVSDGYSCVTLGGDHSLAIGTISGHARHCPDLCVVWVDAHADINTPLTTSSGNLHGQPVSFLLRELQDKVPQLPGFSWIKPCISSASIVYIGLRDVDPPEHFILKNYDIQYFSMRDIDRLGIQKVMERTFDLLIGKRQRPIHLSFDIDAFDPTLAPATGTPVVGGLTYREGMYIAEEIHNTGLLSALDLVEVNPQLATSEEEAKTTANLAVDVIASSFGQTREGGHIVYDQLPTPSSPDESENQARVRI
Provide the reported IC50 of each item.

Example cases with answers are listed next.
compound | test system | IC50
N[C@@]1(C(=O)O)CN(CC2CCNCC2)C[C@@H]1CCCB(O)O | human arginase II (ARG II) (Homo sapiens (Human)) | 1000 to 2000 nM
N[C@@]1(C(=O)O)CN(CCCc2ccc(C(=O)O)cc2)C[C@@H]1CCCB(O)O | human arginase II (ARG II) (Homo sapiens (Human)) | 0.1 to 250 nM
N[C@@]1(C(=O)O)CN(CCCc2ccc(Cl)cc2)C[C@@H]1CCCB(O)O | human arginase II (ARG II) (Homo sapiens (Human)) | 251 to 1000 nM
N[C@@]1(C(=O)O)CN(C(=O)[C@@H]2CCCN2)C[C@@H]1CCCB(O)O | human arginase II (ARG II) (Homo sapiens (Human)) | 251 to 1000 nM
N[C@@]1(C(=O)O)CN(CCN2CCCCC2)C[C@@H]1CCCB(O)O | human arginase II (ARG II) (Homo sapiens (Human)) | 251 to 1000 nM
N[C@@]1(C(=O)O)CCC[C@@H]1CCCB(O)O (racemic) | human arginase II (ARG II) (Homo sapiens (Human)) | 251 to 1000 nM

Give me IC50 for each of these compounds, listed below.
1. NCC[C@H]1C[C@H](CCCB(O)O)[C@](N)(C(=O)O)C1 (racemic)
2. CCN(CC)CCN1C[C@H](CCCB(O)O)[C@](N)(C(=O)O)C1
3. N[C@@]1(C(=O)O)CN(CC2CCCNC2)C[C@@H]1CCCB(O)O (stereo partly drawn)

Output:
["0.1 to 250 nM", "251 to 1000 nM", "251 to 1000 nM"]

###

test system: human arginase I (ARG I) (Homo sapiens (Human))
Sequence (P05089 whole entry): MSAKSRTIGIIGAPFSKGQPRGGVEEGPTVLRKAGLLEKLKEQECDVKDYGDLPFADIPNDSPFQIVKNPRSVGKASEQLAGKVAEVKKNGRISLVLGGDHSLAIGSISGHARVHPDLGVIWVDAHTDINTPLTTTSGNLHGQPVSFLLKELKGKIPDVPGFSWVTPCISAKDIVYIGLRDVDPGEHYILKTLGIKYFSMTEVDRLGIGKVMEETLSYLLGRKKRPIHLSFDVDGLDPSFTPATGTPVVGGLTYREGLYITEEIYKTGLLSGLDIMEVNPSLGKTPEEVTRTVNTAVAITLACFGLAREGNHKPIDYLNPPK
method: Inhibition of arginase I, spectrophotometric urea assay at 530 nm
Type: biochemical
study conditions: potency rank 1-5; pH 7.4, 37° C., 60 minutes
pIC50: −log10 of the molar value.
For each record, write down the corresponding pIC50.

compound | test system | pIC50
COc1ccc(C(=O)N2C[C@H](CCCB(O)O)[C@](N)(C(=O)O)C2)cc1 [Example 47] | human arginase I (ARG I) (Homo sapiens (Human)) | 6.00 to 6.60

Quick batch: pIC50 for everything below.
1. N[C@@]1(C(=O)O)CN(CCN2CCCCC2)C[C@@H]1CCCB(O)O [Example 33]
2. N[C@@]1(C(=O)O)CN(Cc2cccnc2)C[C@@H]1CCCB(O)O [Example 13]

Output:
6.60 to 10.00
6.00 to 6.60
